EXPERIMENTAL TARGET: T1, Proleukin® (aldesleukin) (human, UniProt P60568 21-153, limits assumed)
T1 construct: Variant of human wt IL-2 with C145S (C125S on mature IL-2); also called IL-2 (Proleukin®); human IL-2 (Proleukin)
T1 sequence (P60568 other isoform, or with tags, fused parts or gaps limits assumed): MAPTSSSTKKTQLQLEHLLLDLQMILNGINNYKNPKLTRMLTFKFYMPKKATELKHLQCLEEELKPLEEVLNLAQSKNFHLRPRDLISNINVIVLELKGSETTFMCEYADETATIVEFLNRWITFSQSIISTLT
PROTOCOL TEXT: ELISA, coated Proleukin, HEK293F supernatant 1:2
PROPERTY LABEL: ELISA value (Normal ELISA)
Form field: result (number plus unit)

Inquiry: Name the recorded ELISA value (Normal ELISA) for Antibody No: 12 (antibody, human IgG1, kappa, N297A, V domains shown, VH N58Y; VK M33L; also called 108924) VH: EVQLVQSGAEVKKPGESLKISCKGSGYAFTNYLIEWVRQMPGKGLEWMGVINPGSGGTYYNEKFKGQVTISADKSISTAYLQWSSLKASDTAMYYCARWRGEGYYAYFDVWGQGTTVTVSS VL: AIRLTQSPSSFSASTGDRVTITCKASQSVDYQGDSYLNWYQQKPGKAPKLLIYAASNLESGVPSRFSGSGSGTDFTLTISSLQSEDFATYYCQQSNEDPYTFGGGTKVEIKR .
Reply text: 20000 luminescence signal

Inquiry: Name the recorded ELISA value (Normal ELISA) for Antibody No: 21 (antibody, human IgG1, kappa, N297A, V domains shown, VK WT; HEK293F supernatant) VH: EVQLVQSGAEVKKPGESLKISCKGSGYAFSNYLIEWVRQMPGKGLEWMGVINPGSGGTNYNEKFKGQVTISADKSISTAYLQWSSLKASDTAMYYCARWRGEGYYAYYDVWGQGTTVTVSS VL: AIRLTQSPSSFSASTGDRVTITCKASQSVDYQGDSYMNWYQQKPGKAPKLLIYAASNLESGVPSRFSGSGSGTDFTLTISSLQSEDFATYYCQQSNEDPYTFGGGTKVEIKR .
Reply text: 2200 luminescence signal

Inquiry: Name the recorded ELISA value (Normal ELISA) for Antibody No: 3 (antibody, human IgG1, kappa, N297A, V domains shown, VH WT; VK A50S; HEK293F supernatant) VH: EVQLVQSGAEVKKPGESLKISCKGSGYAFTNYLIEWVRQMPGKGLEWMGVINPGSGGTNYNEKFKGQVTISADKSISTAYLQWSSLKASDTAMYYCARWRGEGYYAYFDVWGQGTTVTVSS VL: AIRLTQSPSSFSASTGDRVTITCKASQSVDYQGDSYMNWYQQKPGKAPKLLIYSASNLESGVPSRFSGSGSGTDFTLTISSLQSEDFATYYCQQSNEDPYTFGGGTKVEIKR .
Reply text: 4500 luminescence signal

Inquiry: Name the recorded ELISA value (Normal ELISA) for Antibody No: 25 (antibody, human IgG1, kappa, N297A, V domains shown, VK M33L + A50S; HEK293F supernatant) VH: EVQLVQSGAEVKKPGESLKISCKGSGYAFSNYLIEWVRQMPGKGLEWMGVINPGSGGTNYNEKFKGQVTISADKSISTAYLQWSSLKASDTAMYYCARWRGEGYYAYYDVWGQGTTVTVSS VL: AIRLTQSPSSFSASTGDRVTITCKASQSVDYQGDSYLNWYQQKPGKAPKLLIYSASNLESGVPSRFSGSGSGTDFTLTISSLQSEDFATYYCQQSNEDPYTFGGGTKVEIKR .
Reply text: 3570 luminescence signal

Inquiry: Name the recorded ELISA value (Normal ELISA) for Antibody No: 2 (antibody, human IgG1, kappa, N297A, V domains shown, VH WT; VK M33L; HEK293F supernatant) VH: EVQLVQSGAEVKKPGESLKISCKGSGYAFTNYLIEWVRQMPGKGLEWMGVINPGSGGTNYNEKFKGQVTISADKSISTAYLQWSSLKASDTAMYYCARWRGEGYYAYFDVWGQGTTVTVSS VL: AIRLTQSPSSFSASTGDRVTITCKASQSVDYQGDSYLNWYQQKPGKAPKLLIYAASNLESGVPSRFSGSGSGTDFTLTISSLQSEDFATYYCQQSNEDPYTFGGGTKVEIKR .
Reply text: 1360 luminescence signal

Inquiry: Name the recorded ELISA value (Normal ELISA) for Antibody No: 20 (antibody, human IgG1, kappa, N297A, V domains shown, VK M33L + A50S; also called 108928) VH: EVQLVQSGAEVKKPGESLKISCKGSGYAFTNYLIEWVRQMPGKGLEWMGVINPGSGGTYYNEKFKGQVTISADKSISTAYLQWSSLKASDTAMYYCARWRGEGYYAYYDVWGQGTTVTVSS VL: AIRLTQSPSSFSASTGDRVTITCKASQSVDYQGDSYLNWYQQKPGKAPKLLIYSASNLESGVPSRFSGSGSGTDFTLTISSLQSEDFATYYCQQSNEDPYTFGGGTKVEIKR .
Reply text: 11700 luminescence signal

Inquiry: Name the recorded ELISA value (Normal ELISA) for Antibody No: 17 (antibody, human IgG1, kappa, N297A, V domains shown, VK M33L; HEK293F supernatant) VH: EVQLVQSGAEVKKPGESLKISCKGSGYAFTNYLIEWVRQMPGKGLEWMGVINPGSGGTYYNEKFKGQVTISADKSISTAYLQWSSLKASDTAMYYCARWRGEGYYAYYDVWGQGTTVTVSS VL: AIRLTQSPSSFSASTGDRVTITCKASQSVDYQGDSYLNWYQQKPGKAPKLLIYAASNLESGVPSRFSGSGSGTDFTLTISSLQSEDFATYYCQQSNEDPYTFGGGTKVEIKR .
Reply text: 3050 luminescence signal

Inquiry: Name the recorded ELISA value (Normal ELISA) for Antibody No: 8 (antibody, human IgG1, kappa, N297A, V domains shown, VK A50S; also called 108923) VH: EVQLVQSGAEVKKPGESLKISCKGSGYAFTNYLIEWVRQMPGKGLEWMGVINPGSGGTNYNEKFKGQVTISADKSISTAYLQWSSLKASDTAMYYCARWRGEGYYAYYDVWGQGTTVTVSS VL: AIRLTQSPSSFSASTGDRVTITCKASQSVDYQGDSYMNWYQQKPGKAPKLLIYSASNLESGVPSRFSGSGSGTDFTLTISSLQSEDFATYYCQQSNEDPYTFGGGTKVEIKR .
Reply text: 9370 luminescence signal

Inquiry: Name the recorded ELISA value (Normal ELISA) for Antibody No: 19 (antibody, human IgG1, kappa, N297A, V domains shown, VK A50T; HEK293F supernatant) VH: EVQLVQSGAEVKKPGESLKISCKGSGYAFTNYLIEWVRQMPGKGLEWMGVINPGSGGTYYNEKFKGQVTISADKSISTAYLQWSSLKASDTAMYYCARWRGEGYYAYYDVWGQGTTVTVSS VL: AIRLTQSPSSFSASTGDRVTITCKASQSVDYQGDSYMNWYQQKPGKAPKLLIYTASNLESGVPSRFSGSGSGTDFTLTISSLQSEDFATYYCQQSNEDPYTFGGGTKVEIKR .
Reply text: 5400 luminescence signal
